measurement target: 3T3 fibroblast bombesin receptors (murine (3T3 murine fibroblasts)) (UniProt P21729)
Sequence (P21729 whole entry): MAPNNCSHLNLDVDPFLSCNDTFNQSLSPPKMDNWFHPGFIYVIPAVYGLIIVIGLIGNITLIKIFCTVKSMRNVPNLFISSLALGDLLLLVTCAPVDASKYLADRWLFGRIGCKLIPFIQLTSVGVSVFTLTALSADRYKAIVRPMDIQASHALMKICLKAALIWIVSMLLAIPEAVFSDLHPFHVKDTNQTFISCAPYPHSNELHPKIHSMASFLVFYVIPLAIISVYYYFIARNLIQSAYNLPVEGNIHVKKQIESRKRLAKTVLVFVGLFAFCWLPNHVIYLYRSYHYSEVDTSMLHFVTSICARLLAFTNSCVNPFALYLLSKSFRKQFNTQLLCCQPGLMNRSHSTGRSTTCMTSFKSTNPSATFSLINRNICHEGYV
Non-standard residues stand in square brackets, D forms with d. No end group written: not given here. Sta = CC(C)C[C@H](N)[C@@H](O)CC(=O)O; pGlu = O=C1CC[C@@H](C(=O)O)N1
Property: bombesin-stimulated [3H]Thymidine uptake, IC50; scope: individual binders
Answer in nM, number only, no unit symbol.

binder: [pGlu]QWAVGH[Sta]-NH2 (SMILES CC(C)C[C@H](NC(=O)[C@H](Cc1c[nH]cn1)NC(=O)CNC(=O)[C@@H](NC(=O)[C@H](C)NC(=O)[C@H](Cc1c[nH]c2ccccc12)NC(=O)[C@H](CCC(N)=O)NC(=O)[C@@H]1CCC(=O)N1)C(C)C)[C@@H](O)CC(N)=O) [BIM-26120, pGlu-Gln-Trp-Ala-Val-Gly-His-Sta-NH2 (Litorin analog)]
val: 165
--
binder: GNHWAVGHLL-NH2 (also: reduced bond ψ[CH2NH] between Leu9 and Leu10) [BIM-26092, Gly-Asn-His-Trp-Ala-Val-Gly-His-Leuψ[CH2NH]Leu-NH2 (Neuromedin C analog)]
val: 466
--
binder: [pGlu]QWAVGHLL-NH2 (also: reduced bond ψ[CH2NH] between Leu8 and Leu9) [BIM-26101, pGlu-Gln-Trp-Ala-Val-Gly-His-Leuψ[CH2NH]Leu-NH2 (Litorin analog)]
val: 296

Reported bombesin-stimulated [3H]Thymidine uptake, IC50 of EQWAVGHFL (pGlu at 1 (written E); reduced peptide bond ψ[CH2NH] between Phe 8 and Leu 9; C-terminal amide) [BIM-26100, pGlu-Gln-Trp-Ala-Val-Gly-His-Pheψ[CH2NH]Leu-NH2 (Litorin analog)] : 26

Just for reference, patent US20050026827A1 is where these values come from.
